- EXPERIMENTAL_TARGET: HLA-A*6801 (human)
- ASSAY: competition vs 125I probe peptide, purified HLA
- CONDITION_NOTES: remark: other sources report otherwise
QUANTITY: IC50 (nM)

I = LAARNVLVK [Her2/neu.846]
II = VVFGILIKRR [Her2/neu.669 (10-mer)]
Incoming: Please choose the item with the lower IC50 value from this pair: I and II Could you answer with the label of the item you picked?
Outgoing: II
(II: 15 nM, I: 500 nM)
